pIC50: −log10 of the molar value.
Parameter pIC50, tested on Glycogen synthase kinase-3 beta (Homo sapiens, UniProt P49841), listed per item.
Sequence (P49841 whole entry): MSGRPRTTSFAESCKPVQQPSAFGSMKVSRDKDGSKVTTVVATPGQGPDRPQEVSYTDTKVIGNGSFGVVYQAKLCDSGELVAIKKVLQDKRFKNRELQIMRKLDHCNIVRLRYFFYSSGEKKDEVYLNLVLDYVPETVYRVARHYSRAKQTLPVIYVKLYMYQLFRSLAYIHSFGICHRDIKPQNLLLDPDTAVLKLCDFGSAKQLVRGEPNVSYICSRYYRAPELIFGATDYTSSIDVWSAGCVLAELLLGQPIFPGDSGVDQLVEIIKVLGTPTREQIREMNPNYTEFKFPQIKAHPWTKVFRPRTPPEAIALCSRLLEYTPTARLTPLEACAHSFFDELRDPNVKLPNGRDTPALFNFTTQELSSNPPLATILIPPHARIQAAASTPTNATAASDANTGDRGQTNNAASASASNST

Examples from the recorded data:
CC[C@@]1(c2ccccc2)C2=CN=NC2NC2=C1C(=O)C[C@H](c1ccccc1)C2 (stereo partly specified) :: < 5.30
Cc1cc(S(=O)(=O)N2CCC3(CC2)C2=CN=NC2NC2=C3C(=O)CC(C)(C)C2)ccc1Cl (stereo unspecified) :: > 7.00
CCC1(c2cccc(-c3ccnc(CCO)c3)c2)C2=CN=NC2NC2=C1C(=O)CC(C)(C)C2 (stereo unspecified) :: 6.00 to 7.00
CC1(C)CC(=O)C2=C(C1)NC1=C(CN=N1)C21CCN(S(=O)(=O)c2ccc3c(c2)OCCO3)CC1 :: > 7.00
CC[C@]1(c2cccc(-c3ccnc(C)c3C)c2)C2=CN=NC2NC2=C1C(=O)NC(C)(C)C2 (stereo partly specified) :: < 5.30

Please turn your attention to the following entry.
Problem: Which pIC50 reading was recorded for the molecule CC[C@@]1(c2cccc(-c3cc(C)ncc3F)c2)C2=CN=NC2NC2=C1C(=O)CC(C)(C)C2 (stereo partly specified) ?
Result: 5.30 to 6.00

* * *

# collection of IC50 values tested on Glycogen synthase kinase-3 alpha (Homo sapiens, UniProt P49840)
# Sequence (P49840 whole entry): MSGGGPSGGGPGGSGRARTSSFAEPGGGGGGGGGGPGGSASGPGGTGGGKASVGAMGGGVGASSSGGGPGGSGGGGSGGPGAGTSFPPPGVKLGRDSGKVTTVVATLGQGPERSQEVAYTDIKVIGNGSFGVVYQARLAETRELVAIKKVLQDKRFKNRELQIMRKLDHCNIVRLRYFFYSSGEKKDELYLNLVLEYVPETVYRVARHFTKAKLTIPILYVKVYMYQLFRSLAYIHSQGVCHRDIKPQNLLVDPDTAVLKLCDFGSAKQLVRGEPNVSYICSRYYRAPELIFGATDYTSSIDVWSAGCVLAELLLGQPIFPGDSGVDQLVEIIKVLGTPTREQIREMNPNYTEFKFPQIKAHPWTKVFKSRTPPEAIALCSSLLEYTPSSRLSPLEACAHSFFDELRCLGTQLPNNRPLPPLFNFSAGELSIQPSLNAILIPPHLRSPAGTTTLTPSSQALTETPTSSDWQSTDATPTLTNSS

CO[C@H]1CC[C@@]2(CC1)C1=C(N=NC1)NC1=C2C(=O)CC(C)(C)C1 :: < 100 nM
CC1(C)CC(=O)C2=C(C1)NC1=C(CN=N1)[C@]21COC2(CN(C(=O)C(F)(F)F)C2)C1 :: < 100 nM
CCC1(c2cccc(C(F)(F)F)c2)C2=CN=NC2NC2=C1C(=O)NCC2 (stereo not drawn) :: 100 to 1000 nM
CC[C@]1(c2cccc(-c3ccnc(C(F)(F)F)c3)c2)C2=C(CC(C)(C)CC2=O)NC2N=NC(C)=C21 (stereo partly drawn) :: 100 to 1000 nM
CC[C@]1(c2cccc(C(F)(F)F)c2)C2=CN=NC2NC2=C1C(=O)N(C)C[C@@H]2C (stereo partly drawn) :: < 100 nM
CC1(C)CC(=O)C2=C(C1)NC1=C(CN=N1)[C@]21CCO[C@H](C(C)(C)C)C1 :: 100 to 1000 nM

For each of the items listed, what is its IC50?
1. CC[C@]1(c2cccc(N(C)c3cccnn3)c2)C2=CN=NC2NC2=C1C(=O)CC(C)(C)C2 (stereo partly drawn)
2. CC[C@]1(c2cccc(N3C[C@H](C)[C@@H](C)C3)c2)C2=CN=NC2NC2=C1C(=O)CC(C)(C)C2 (stereo partly drawn)
3. CC[C@@]1(c2cccc(-c3cc(C)ncc3OC)c2)C2=CN=NC2NC2=C1C(=O)NC(C)(C)C2 (stereo partly drawn)
4. CCC1(c2cccc(C(F)F)c2)C2=C(CC(C)(C)NC2=O)NC2N=NC(C)=C21 (stereo not drawn)

Result:
100 to 1000 nM
100 to 1000 nM
1000 to 5000 nM
< 100 nM

# per-item lookup of IC50; items listed below
1. CCC1(c2cccc(-c3c(C)nnn3C)c2)C2=CN=NC2NC2=C1C(=O)CC(C)(C)C2 (stereo not drawn)
2. CC[C@]1(c2cccc(-c3ccncc3C)c2)C2=CN=NC2NC2=C1C(=O)N[C@]1(CCOC1)C2 (stereo partly drawn)

Result:
["< 100 nM", "< 100 nM"]

Problem: Please provide the recorded IC50 for C[C@H]1CC(=O)C2=C(C1)NC1=C(CN=N1)[C@]2(C)c1ccccc1 , tested on Glycogen synthase kinase-3 alpha (Homo sapiens, UniProt P49840).
Result: 100 to 1000 nM

* * *

Biological target: Glycogen synthase kinase-3 beta (Homo sapiens, UniProt P49841)
Field: IC50. Provide a value for each of the compounds that follow.

Known IC50 results, listed for orientation:
CC1(C)CC(=O)C2=C(C1)NC1=C(CN=N1)C21CN(Cc2ccccn2)C1 :: > 5 µM
CCC1(c2cccc(Br)c2)C2=CN=NC2NC2=C1C(=O)CC(C(F)(F)F)C2 (stereo unspecified) :: 0.1 to 1 µM
CC[C@@]1(c2cccc(-c3ccnn3C)c2)C2=CN=NC2NC2=C1C(=O)NC1(CCOCC1)C2 (stereo partly specified) :: > 5 µM
CC[C@]1(c2cccc(-c3ccnn3C3CC3(F)F)c2)C2=CN=NC2NC2=C1C(=O)NC(C)(C)C2 (stereo partly specified) :: > 5 µM
CN1CCC2(CC1)C1=C(N=NC1)NC1=C2C(=O)CC(C)(C)C1 :: > 5 µM
CCC1(c2cccc(Cl)c2)C2=C(CC(C)(C)CC2=O)NC2N=NC(C)=C21 (stereo unspecified) :: 0.1 to 1 µM
CC[C@]1(c2cccc(C(F)(F)F)c2)C2=CN=NC2NC2=C1C(=O)N[C@H](c1ccccc1)C2 (stereo partly specified) :: 0.1 to 1 µM
CC[C@]1(c2cccc(-c3cnn(C)c3)c2)C2=CN=NC2NC2=C1C(=O)C[C@H](C)C2 (stereo partly specified) :: 0.1 to 1 µM

Please go through the list and note IC50 for each compound.
1. CC[C@]1(c2cccc(C(F)(F)F)c2)C2=C(N=NC2)NC2=C1C(=O)C(C)(C)C2
2. CC1(C)CC(=O)C2=C(C1)NC1=C(CN=N1)C21CCN(S(=O)(=O)c2cnc3n2CCCC3)CC1
3. Cc1cc(S(=O)(=O)N2CCC3(CC2)C2=C(N=NC2)NC2=C3C(=O)CC(C)(C)C2)c(C)s1
4. CC[C@@]1(c2cccc([C@@H]3CCOC(C)(C)C3)c2)C2=CN=NC2NC2=C1C(=O)CC(C)(C)C2 (stereo partly specified)
5. CCn1ccc(S(=O)(=O)N2CCC3(CC2)C2=C(N=NC2)NC2=C3C(=O)CC(C)(C)C2)n1

Result:
0.1 to 1 µM
< 0.1 µM
0.1 to 1 µM
> 5 µM
< 0.1 µM

Please look at the items below and tell me IC50 for each one, in order.
1. CC1(C)CC(=O)C2=C(C1)NC1=C(CN=N1)C21CCN(CC(F)F)CC1
2. COc1cccc(S(=O)(=O)N2CC3(C2)C2=C(N=NC2)NC2=C3C(=O)CC(C)(C)C2)c1
3. CC1(C)CC(=O)C2=C(C1)NC1=C(C(C3CC3)N=N1)C21CN(S(=O)(=O)CC2CC2)C1 (stereo unspecified)
4. CC[C@@]1(c2cccc(N3CCCCC3)c2)C2=C(CC(C)(C)NC2=O)NC2N=NC(C(F)(F)F)=C21 (stereo partly specified)
5. CC[C@@]1(c2cccc(N(C)c3cc(C)ccn3)c2)C2=CN=NC2NC2=C1C(=O)CC(C)(C)C2 (stereo partly specified)
6. CC1(C)CC(=O)C2=C(C1)NC1N=NC=C1[C@@]21CCCc2ccccc21 (stereo partly specified)
7. CC[C@@]1(c2cccc(-c3cnn(C)c3)c2)C2=CN=NC2NC2=C1C(=O)CC(C)(C)C2 (stereo partly specified)
8. CCC1(c2cccc(N3CCCC3)c2)C2=C(CC(C)(C)CC2=O)NC2N=NC(C(F)(F)F)=C21 (stereo unspecified)

Result:
["0.1 to 1 µM", "< 0.1 µM", "0.1 to 1 µM", "0.1 to 1 µM", "0.1 to 1 µM", "> 5 µM", "1 to 5 µM", "< 0.1 µM"]

Count: 5. Required value per item: IC50.
1. CCC1(c2ccccc2)C2=C(N=NC2)NC2=C1C(=O)CC(C)(C(F)(F)F)C2 (stereo unspecified)
2. CC[C@]1(c2cccc(Cc3ncccc3C(F)(F)F)c2)C2=CN=NC2NC2=C1C(=O)CC(C)(C)C2 (stereo partly specified)
3. CC[C@@]1(c2cccc(-c3cn(C)nc3C(F)(F)F)c2)C2=CN=NC2NC2=C1C(=O)NC(C)(C)C2 (stereo partly specified)
4. CC[C@]1(c2cccc(-c3c(F)cncc3OC)c2)C2=CN=NC2NC2=C1C(=O)CC(C)(C)C2 (stereo partly specified)
5. CC1(C)CC(=O)C2=C(C1)NC1=C(CN=N1)C21CCC2(CC1)COC2

Result:
1 to 5 µM
0.1 to 1 µM
< 0.1 µM
< 0.1 µM
0.1 to 1 µM

* * *

pIC50: −log10 of the molar value.
Below are pIC50 values recorded for Glycogen synthase kinase-3 alpha (Homo sapiens).

Here are 5 compounds together with their reported answers.
CC[C@]1(c2cccc(-c3ccnc(C)c3)c2)C2=CN=NC2NC2=C1C(=O)NC1(CCOCC1)C2 (stereo partly specified) :: 5.30 to 6.00
CCC1(c2cccc(-c3cnn(C)c3)c2)C2=C(CC(C)(C)CC2=O)NC2N=NC(C)=C21 (stereo unspecified) :: > 7.00
CC[C@@]1(c2cccc(OC(C)C)c2)C2=CN=NC2NC2=C1C(=O)CC(C)(C)C2 (stereo partly specified) :: 5.30 to 6.00
CC[C@@]1(c2ccccc2)C2=CN=NC2NC2=C1C(=O)C[C@@H](C(F)(F)F)C2 (stereo partly specified) :: 6.00 to 7.00
CC[C@@]1(c2cccc(-c3c(C)ccc4c(C)cccc34)c2)C2=C(CC(C)(C)NC2=O)NC2N=NC(F)=C21 (stereo partly specified) :: 5.30 to 6.00

Here is the next item to consider.
Problem: What value of pIC50 has been recorded for this entry: CC(C)(C)CC(=O)N1CC2(C1)CC1(CO2)C2=C(N=NC2)NC2=C1C(=O)CC(C)(C)C2 (stereo unspecified)
Result: 6.00 to 7.00
